This collection of values is drawn from patent EP4790048A1.

Biological target: hS1P4 (Homo sapiens, UniProt O95977)
Construct: expressed in transfected cells; host or cells: CHO
Sequence (O95977 1-384): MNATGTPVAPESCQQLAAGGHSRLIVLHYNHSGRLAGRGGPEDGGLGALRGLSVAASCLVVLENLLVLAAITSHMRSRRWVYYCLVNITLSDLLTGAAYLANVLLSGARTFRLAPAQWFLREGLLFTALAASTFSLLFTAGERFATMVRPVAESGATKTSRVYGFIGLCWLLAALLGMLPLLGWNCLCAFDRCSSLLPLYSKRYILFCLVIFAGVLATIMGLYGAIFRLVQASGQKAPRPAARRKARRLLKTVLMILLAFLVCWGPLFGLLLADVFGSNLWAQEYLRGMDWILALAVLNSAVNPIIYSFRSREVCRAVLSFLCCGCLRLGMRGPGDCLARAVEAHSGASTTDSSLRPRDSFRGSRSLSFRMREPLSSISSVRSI
Experiment: Tango β-arrestin recruitment luciferase assay, Tango-hS1P4-CHO
Assay type: cell-based
Settings: β-arrestin recruitment; 20 h drug treatment; top 45 µM, 9 serial 5-fold dilutions; positive control 25 µM BAF-312; read-out: Tango-hS1P4-CHO EC50
pEC50: −log10 of the molar value.
measurement.label: pEC50

Record excerpt, results attached:
CCc1cc(/C(C)=N/OCc2ccc(-c3cncnc3)c(C)c2)ccc1CN1CCC(C(=O)O)CC1 ... 7.37
C/C(=N\OCc1ccc(C2CCCCC2)c(C(F)(F)F)c1)c1ccc(CNCCCC(=O)O)cc1 ... 5.62
CCc1cc(/C(C)=N/OCc2ccc(C)c(C(F)(F)F)c2)ccc1CN1CC(C(=O)O)C1 ... 5.44
C/C(=N\OCc1ccc(C2CCCCC2)c(C(F)(F)F)c1)c1ccc(CN2CC(C(=O)O)C2)c(Br)c1 ... 5.65
CCc1cc(/C(C)=N/OCc2ccc(C3CCCCC3)c(C)c2)ccc1CN1CC[C@H](C(=O)O)C1 ... 7.14

(A) CCc1cc(/C(C)=N/OCc2ccc(-c3ccsc3)cc2)ccc1CN1CC[C@H](C(=O)O)C1
(B) CCc1cc(/C(C)=N/OCc2ccc(-c3cncnc3)c(C)c2)ccc1CN1CC(C(=O)O)C1
(Q) Please indicate which entry, A or B , has the lower recorded pEC50 value. Return value: the label identifying the chosen record.
(A) B

(a) CCc1cc(/C(C)=N/OCc2ccc(-c3ncc(F)cn3)c(C)c2)ccc1CN1CC[C@H](C(=O)O)C1
(b) C/C(=N\OCc1ccc(C2CCCCC2)c(C(F)(F)F)c1)c1ccc(CNC2CCCC(C(=O)O)C2)cc1 (stereo not drawn)
(c) CCc1cc(/C(C)=N/OCc2ccc(-c3ccncc3)c(C)c2)ccc1CN1CC[C@H](C(=O)O)C1
(Q) Order by pEC50, ascending. Ranked list of labels, please, in the requested order.
(A) b, c, a

(1) CCc1cc(/C(C)=N/OCc2ccc(-c3ccncn3)c(C)c2)ccc1CN1CC[C@H](C(=O)O)C1
(2) CCc1cc(/C(C)=N/OCc2ccc(-c3ccccc3F)c(F)c2)ccc1CN1CC[C@H](C(=O)O)C1
(Q) Parameter check: reported pEC50 is higher for which label, 1 or 2 ? Return value: the label identifying the chosen record.
(A) 1

(1) CCc1cc(/C(C)=N/OCc2cccc(C(F)(F)F)c2)ccc1CN1CC(C(=O)O)C1
(2) CCc1cc(/C(C)=N/OCc2ccc(-c3ccccc3)c(F)c2)ccc1CN1CC[C@H](C(=O)O)C1
(3) CCc1cc(/C(C)=N/OCc2ccc(-c3ccc(F)nc3)c(F)c2)ccc1CN1CC[C@H](C(=O)O)C1
(Q) Number of compounds to sort: 3. Sort criterion: pEC50, ascending. Reply format: the labels, ordered as requested.
(A) 1, 3, 2
(1: 5.49, 3: 8.08, 2: 8.42)
